Please go through the items and note down their IC50.
target: HIV-1 RT-associated RNase H (Human immunodeficiency virus type 1 group M subtype B, UniProt P03366); assay: biochemical; assay type: biochemical
One number for each entry, in µM.

response.value for CCCCc1ccc(C(=O)Nc2nc3nc(C)cc(-c4ccccc4)n3n2)cc1 [Compound 12b] (field: IC50) = 12.3

The molecule identified as Cc1cc(-c2ccccc2)nc2nc(NC(=O)c3ccc([N+](=O)[O-])cc3)nn12 [Compound 13d] registered its IC50 at 60.1

get_value(item= Cc1cc(-c2ccc(O)c(O)c2)n2nc(NC(=O)c3ccccc3)nc2n1 [Compound 17h] , readout=IC50) returns 1.13

So for Cc1cc(C)n2nc(NC(=O)c3ccc(O)c(O)c3)nc2n1 [Compound 14g] , the logged IC50 turned out to be 6.23

Note to self: IC50 recorded for NC(=O)c1c(N)sc2c1CCCCC2 [Compound 5] was 4

Item: COc1ccc(-c2cc(C)nc3nc(N(C(=O)c4ccccc4)C(=O)c4ccccc4)nn23)cc1OC [Compound 16hh] | IC50: 6.74

GET /value?item= CCCCc1ccc(C(=O)Nc2nc3n(n2)C(c2ccccc2)C=C(C)N3)cc1 (stereo not drawn) [Compound 11b] &field=IC50 returns 13.1

Kindly note the recorded IC50 for CCCCOc1ccc(C(=O)Nc2nc3n(n2)C(c2ccccc2)C=C(C)N3)cc1 (stereo not drawn) [Compound 11a] , which is 17.7

For Cc1cc(-c2ccccc2)nc2nc(C(=O)Nc3ccc(O)c(O)c3)nn12 [Compound 19g] the molecule record lists IC50 as 43.1

// switching to the query molecule
Lab note: O=C(Nc1nc2nc(-c3ccccc3)cc(-c3ccccc3)n2n1)c1ccc(O)c(O)c1 [Compound 15g] gave IC50 of 1.86

###

Please respond with reported melting point for every item in the list.

Worked examples follow.
get_value(item= O=C(Nc1nc2nc(-c3ccccc3)cc(-c3ccccc3)n2n1)c1ccc(O)c(O)c1 [Compound 15g] , readout=melting point) returns 258 to 260 °C

Record Cc1cc(-c2ccccc2)n2nc(NC(=O)c3ccc([N+](=O)[O-])cc3)nc2n1 [Compound 12d] , field melting point: 290 to 293 °C

Sure, the documented melting point for COc1ccc(C(=O)Nc2nc3nc(C)cc(-c4ccccc4)n3n2)cc1OC [Compound 12f] is 131 to 151 °C

Note to self: melting point recorded for COc1ccc(C(=O)Nc2nc3nc(C)cc(C)n3n2)cc1OC [Compound 14f] was 190 to 194 °C

Reported melting point of Cc1cc(-c2ccccc2)n2nc(C(=O)Nc3ccc(O)c(O)c3)nc2n1 [Compound 18g] : 278 to 281 °C

Note to self: melting point recorded for Cc1cc(C)n2nc(NC(=O)c3ccc([N+](=O)[O-])cc3)nc2n1 [Compound 14d] was 273 to 276 °C

Hey, quick one: what's melting point for each of these?
1. Cc1cc(-c2ccccc2)nc2nc(NC(=O)c3ccc(N)cc3)nn12 [Compound 13e]
2. Cc1cc(-c2ccccc2)nc2nc(C(=O)Nc3ccc(O)c(O)c3)nn12 [Compound 19g]
3. Cc1cc(C)n2nc(NC(=O)c3ccccc3F)nc2n1 [Compound 14c]

Marked response:
318 to 319 °C
247 to 250 °C
195 to 200 °C
